Hey, just so you know, these numbers are from PubChem BioAssay (Tox21).

# target entity: Thyrotropin receptor (Homo sapiens)
# method summary: qHTS assay to identify small molecule agonists of the thyroid stimulating hormone receptor (TSHR) signaling pathway (AID 1224843); note: nearly all actives have a fitted effect of over 45% in size
# test conditions: TSHR-HEK293 cells, cAMP HTRF, agonist mode, 30 min; series mostly up to 92.4 µM
Inconclusive results are not listed. The source made the active and inactive calls. Calls come from the whole dose curve.
measured endpoint: activation

Consider the worked cases shown below.
{"compound": "O=C(Nc1ccc(S(=O)(=O)N2CCOCC2)cc1)c1cc(Cl)ccc1NS(=O)(=O)c1ccc(Cl)s1", "target entity": "Thyrotropin receptor (Homo sapiens)", "activation": "inactive"}
{"compound": "O=C(O)C(S)C(S)C(=O)O (stereo not drawn)", "target entity": "Thyrotropin receptor (Homo sapiens)", "activation": "inactive"}
{"compound": "Cc1ccc(N=Nc2c(O)c(C(=O)O)cc3ccccc23)c(S(=O)(=O)O)c1", "target entity": "Thyrotropin receptor (Homo sapiens)", "activation": "inactive"}
{"compound": "Cc1cccc(C)c1NC(=O)CN(CC(=O)O)CC(=O)O", "target entity": "Thyrotropin receptor (Homo sapiens)", "activation": "inactive"}

Continue with the next compound.
Problem: Lab request: please report activation under test system Thyrotropin receptor (Homo sapiens) for CC1CCC(=O)C1=O (stereo not drawn)
Solution: inactive

----------
# method summary: qHTS assay to identify small molecule agonists of the sonic hedgehog signaling (Shh) pathway - cell viability counter screen (AID 1259366); note: nearly all actives have a fitted effect of over 50% in size
# test conditions: NIH/3T3 Gli1-Luc viability, CellTiter-Fluor, 24 h; series mostly up to 92.4 µM
Inconclusive results are not listed. Activity calls are given as the source filed them. Calls follow the shape of the dose curve; as a rule, active = well fitted cell-killing curve with a large enough effect in the repeat runs; inconclusive = weak or mixed curves, or effect the other way; inactive = flat fitted curve, though single readings scatter.
Assign a class; possible classes are active, inactive

{"compound": "C[Si](C)(CCCN)O[Si](C)(C)CCCN", "assigned class": "inactive"}
{"compound": "O=[N+]([O-])c1cccc(S(=O)(=O)O)c1", "assigned class": "inactive"}
{"compound": "CCCCC1=NC2(CCCC2)C(=O)N1Cc1ccc(-c2ccccc2-c2nn[nH]n2)cc1", "assigned class": "active"}
{"compound": "COc1cc(C(=O)OCCCN2CCCN(CCCOC(=O)c3cc(OC)c(OC)c(OC)c3)CC2)cc(OC)c1OC", "assigned class": "active"}
{"compound": "CC1=CC=C(C(C)C)CC1", "assigned class": "inactive"}

Problem: // outcome(item) with item = CCCCCC[C@@H](O)C/C=C\CCCCCCCC(=O)OC
Solution: inactive

Problem: // outcome(item) with item = OC(C#CCN1CCCC1)(c1ccccc1)c1ccccc1
Solution: inactive

Problem: // outcome(item) with item = CCO[Si](CCCCl)(OCC)OCC
Solution: inactive

Problem: // outcome(item) with item = CN(Cc1ccc(C(C)(C)C)cc1)Cc1cccc2ccccc12
Solution: inactive

Problem: // outcome(item) with item = CCCCCCCCO[C@@H]1O[C@H](CO)[C@@H](O)[C@H](O)[C@H]1O
Solution: inactive

Problem: // outcome(item) with item = CCOC(=O)C(=O)CCc1ccccc1
Solution: inactive

Problem: // outcome(item) with item = CC1(c2ccccc2)OC(C(=O)O)=CC1=O (configuration not stated)
Solution: inactive

----------
# method summary: qHTS RealTime-Glo MT Cell Viability Assay in HEK293 cells - 24 hour (AID 1224886); note: nearly all actives have a fitted effect of over 50% in size
# test conditions: RealTime-Glo luminescence; series mostly up to 76.8 µM
# Text: National Center for Advancing Translational Sciences [NCATS] NIH Chemical Genomics Center [NCGC] U.S. Environmental Protection Agency [EPA] National Institutes of Environmental Health Sciences [NIEHS] National Toxicology Program [NTP] U.S. Food and Drug Administration [FDA] Measure of cell viability is critical in the cell-base assay. Analysis of cell viability is necessary for the characterization of cell responses to cytotoxic drugs and environmental stress. […]
Inconclusive results are not listed. Active and inactive are the calls of the source. Calls follow the shape of the dose curve; as a rule, active = well fitted cell-killing curve with a large enough effect in the repeat runs; inconclusive = weak or mixed curves, or effect the other way; inactive = flat fitted curve, though single readings scatter.
Assign a class; possible classes are label 1 for active, label 0 for inactive

Problem: // outcome(item) with item = C/C=C(/C(=C/C)c1ccc(OC(C)=O)cc1)c1ccc(OC(C)=O)cc1
Solution: label 0

Problem: // outcome(item) with item = CCCCCCCCCc1ccc(OCCOCCO)cc1
Solution: label 1

Problem: // outcome(item) with item = CCCCC(CC)COC(=O)CCCCCCCCC(=O)OCC(CC)CCCC (stereo not drawn)
Solution: label 0

Problem: // outcome(item) with item = CCCCCCCCCCCCCCOS(=O)(=O)O
Solution: label 0

Problem: // outcome(item) with item = O=[N+]([O-])c1ccc(NCCO)c(OCCO)c1
Solution: label 0

Problem: // outcome(item) with item = O=C(CS)Nc1ccccc1
Solution: label 0

Problem: // outcome(item) with item = COc1ccc(S(=O)(=O)N2C(=O)[C@@](c3ccccc3OC)(N3C[C@H](O)C[C@H]3C(=O)N(C)C)c3cc(Cl)ccc32)c(OC)c1
Solution: label 1

Problem: // outcome(item) with item = NCc1ccccc1Sc1ccccc1CO
Solution: label 0
